Hi there, I'd appreciate the recorded growth for every entry that follows.
- Test system: SK-OV-3 ovarian
- Method: NCI-60 one-dose screen, 48 h (100 = growth as untreated, 0 = no growth, -100 = all killed)
- Condition notes: 10 µM
- Method: Growth inhibition of the SK-OV-3 human tumor cell line is measured as a screen for anti-cancer activity. Cells are grown in 96 well plates and exposed to the test compound for 48 hours. Compounds are tested at a single concentration, which is 10^-5 M for most compounds. The reported endpoint is percent growth (GI% or GIPRCNT), where numbers from 0 - 100% represent growth inhibition, and numbers from -100% - 0 represent cell death. For example, a value of 40 represents 60% growth inhibition. […]
The panel holds about 83,000 compounds, 20% with a hit somewhere; the sample as a whole holds those more often.
Numbers only, in %.

Consider the reported growth for these molecules:
COc1ccc(-c2cc(/C=C/C(=O)c3cc(OC)c(OC)c(OC)c3)[nH]n2)cc1OC :: 39.3
O=C(N/N=C/c1ccccc1O)C(O)(c1ccccc1)c1ccccc1 :: 66.9
CC12O[C@H](C[C@@H](O)[C@H]1O)n1c3ccccc3c3c4c(c5c6ccccc6n2c5c31)C(=O)N(CCCN)C4=O :: 41.8
COc1ccc(-c2nn(-c3cccc(NC(=O)c4ccc(Cl)c(Cl)c4)c3)cc2-c2ccncc2)cc1Cl :: 82.2
Cc1cc(C)c(CCc2cc(C)c(C)cc2C)cc1C :: 114

Your task in this section: give growth for each listed record.
1. CCN1CCN(c2nc3ccccc3c3c(=O)c4ccccc4sc23)CC1
2. Nc1ccc2cc(S(=O)(=O)O)cc(O)c2c1N=Nc1ccc(F)cc1
3. COC(=O)C(=C\c1ccc2c(c1)OCO2)/C(=C/c1ccc2c(c1)OCO2)C(=O)OC
4. COc1cc(-c2cc(C(=O)N3CCN(C(=O)c4ccccc4NCc4cccs4)CC3)nc3cc(-c4ccccc4)nn23)cc(OC)c1OC

[59.9, 103, 105, 86.7]
